Quick list: viability at 100 µM per entry.
experiment: Cytotoxicity against mouse B16F10 cells assessed as cell viability at 100 uM by MTT assay; assay type: cell-based, B16-F10; conditions: read-out: Activity
Give the value in % but do not write % after it.

Req: Value lookup for viability at 100 µM; key = O=c1c(O[C@@H]2O[C@H](CO)[C@@H](O)[C@H](O)[C@H]2O)c(-c2ccc(O[C@@H]3O[C@H](CO)[C@@H](O)[C@H](O)[C@H]3O)c(O)c2)oc2cc(O)cc(O)c12
Resp: 104

Req: Please answer likewise for O=c1c(O[C@@H]2O[C@H](CO)[C@@H](O[C@@H]3O[C@H](CO)[C@@H](O)[C@H](O)[C@H]3O)[C@H](O)[C@H]2O)c(-c2ccc(O)c(O)c2)oc2cc(O[C@@H]3O[C@H](CO)[C@@H](O)[C@H](O)[C@H]3O)cc(O)c12
Resp: 113

Req: Please answer likewise for O=c1c(O[C@@H]2O[C@H](CO)[C@@H](O)[C@H](O)[C@H]2O)c(-c2ccc(O)c(O)c2)oc2cc(O[C@@H]3O[C@H](CO)[C@@H](O[C@@H]4O[C@H](CO)[C@@H](O)[C@H](O)[C@H]4O)[C@H](O)[C@H]3O)cc(O)c12
Resp: 113

Req: Please answer likewise for O=c1c(O[C@@H]2O[C@H](CO)[C@@H](O[C@@H]3O[C@H](CO)[C@@H](O)[C@H](O)[C@H]3O)[C@H](O)[C@H]2O)c(-c2ccc(O)c(O)c2)oc2cc(O)cc(O)c12
Resp: 93.2

Req: Please answer likewise for O=c1c(O[C@@H]2O[C@H](CO)[C@@H](O)[C@H](O)[C@H]2O)c(-c2ccc(O)c(O)c2)oc2cc(O[C@@H]3O[C@H](CO)[C@@H](O)[C@H](O)[C@H]3O)cc(O)c12
Resp: 78

Req: Please answer likewise for O=c1c(O[C@@H]2O[C@H](CO)[C@@H](O)[C@H](O)[C@H]2O)c(-c2ccc(O[C@@H]3O[C@H](CO)[C@@H](O[C@@H]4O[C@H](CO)[C@@H](O)[C@H](O)[C@H]4O)[C@H](O)[C@H]3O)c(O)c2)oc2cc(O)cc(O)c12
Resp: 107

Req: Please answer likewise for O=c1c(O[C@@H]2O[C@H](CO)[C@@H](O[C@@H]3O[C@H](CO)[C@@H](O)[C@H](O)[C@H]3O)[C@H](O)[C@H]2O)c(-c2ccc(O[C@@H]3O[C@H](CO)[C@@H](O[C@@H]4O[C@H](CO)[C@@H](O)[C@H](O)[C@H]4O)[C@H](O)[C@H]3O)c(O)c2)oc2cc(O)cc(O)c12
Resp: 106

Req: Please answer likewise for O=c1c(O[C@@H]2O[C@H](CO)[C@@H](O)[C@H](O)[C@H]2O)c(-c2ccc(O)c(O)c2)oc2cc(O)cc(O)c12
Resp: 80.9

----------
Quick list: viability at 200 µM per entry.
test: Cytotoxicity against mouse B16F10 cells assessed as cell viability at 200 uM by MTT assay; type: cell-based, B16-F10; conditions: read-out: Activity
Give the value in % but do not write % after it.

These solved cases illustrate the format of a correct answer.
Line notation: O=c1c(O[C@@H]2O[C@H](CO)[C@@H](O)[C@H](O)[C@H]2O)c(-c2ccc(O)c(O)c2)oc2cc(O[C@@H]3O[C@H](CO)[C@@H](O[C@@H]4O[C@H](CO)[C@@H](O)[C@H](O)[C@H]4O)[C@H](O)[C@H]3O)cc(O)c12
Experimental value: 111

Line notation: O=c1c(O[C@@H]2O[C@H](CO)[C@@H](O[C@@H]3O[C@H](CO)[C@@H](O)[C@H](O)[C@H]3O)[C@H](O)[C@H]2O)c(-c2ccc(O)c(O)c2)oc2cc(O)cc(O)c12
Experimental value: 81.1

Line notation: O=c1c(O[C@@H]2O[C@H](CO)[C@@H](O[C@@H]3O[C@H](CO)[C@@H](O)[C@H](O)[C@H]3O)[C@H](O)[C@H]2O)c(-c2ccc(O)c(O)c2)oc2cc(O[C@@H]3O[C@H](CO)[C@@H](O[C@@H]4O[C@H](CO)[C@@H](O)[C@H](O)[C@H]4O)[C@H](O)[C@H]3O)cc(O)c12
Experimental value: 95.2

Req: Value lookup for viability at 200 µM; key = O=c1c(O[C@@H]2O[C@H](CO)[C@@H](O)[C@H](O)[C@H]2O)c(-c2ccc(O[C@@H]3O[C@H](CO)[C@@H](O[C@@H]4O[C@H](CO)[C@@H](O)[C@H](O)[C@H]4O)[C@H](O)[C@H]3O)c(O)c2)oc2cc(O)cc(O)c12
Resp: 106
